Numbers sourced from the supplement of paper PMC11061612.

Test system: JSC-1 (B-Cell Non-Hodgkin's Lymphoma)
Assay: Bliss excess, mean over the matrix (fraction); higher = more synergy
Readout Kind: Bliss excess
Just the number, please, no unit attached.

Guide cases for Bliss excess, answers given:
Compound: Cc1c2c(nn1C)CSCc1cc(n(C)n1)CSc1cc(c3ccccc3c1)OCCCc1c(C(=O)O)n(C)c3c-2c(Cl)ccc13 [AZD5991] + CN(C)CCCOc1ccc(-c2ccc3ncc4c(c3c2)n(C2CCOCC2)c(=O)n4C)cn1 [AZD0156] (first compound max 1 µM, 7x7, partner max 1 µM)
Assay Target: JSC-1 (B-Cell Non-Hodgkin's Lymphoma)
Bliss excess: -0.0081

Compound: Cc1c2c(nn1C)CSCc1cc(n(C)n1)CSc1cc(c3ccccc3c1)OCCCc1c(C(=O)O)n(C)c3c-2c(Cl)ccc13 [AZD5991] + Cn1cnc2c(F)c(Nc3ccc(Br)cc3Cl)c(C(=O)NOCCO)cc21 [Selumetinib] (first compound max 1 µM, 7x7, partner max 3 µM)
Assay Target: JSC-1 (B-Cell Non-Hodgkin's Lymphoma)
Bliss excess: 0.027

Compound: CC(=O)c1c(C)c2cnc(Nc3ccc(N4CCNCC4)cn3)nc2n(C2CCCC2)c1=O [Palbociclib] + CC1(C)CCC(CN2CCN(c3ccc(C(=O)NS(=O)(=O)c4ccc(NCC5CCOCC5)c([N+](=O)[O-])c4)c(Oc4cnc5[nH]ccc5c4)c3)CC2)=C(c2ccc(Cl)cc2)C1 [Venetoclax] (first compound max 10 µM, 7x7, partner max 1 µM)
Assay Target: JSC-1 (B-Cell Non-Hodgkin's Lymphoma)
Bliss excess: -0.0127

Enquiry: Which Bliss excess value is on record for CN(C)CCCOc1ccc(-c2ccc3ncc4c(c3c2)n(C2CCOCC2)c(=O)n4C)cn1 [AZD0156] + C=CCn1c(=O)c2cnc(Nc3ccc(N4CCN(C)CC4)cc3)nc2n1-c1cccc(C(C)(C)O)n1 [AZD1775] (first compound max 1 µM, partner max 1 µM) ?
Return: -0.0102

----------
Test system: SK-MG-1 (Low Grade Glioma)
Assay: Bliss excess, mean over the matrix (fraction); higher = more synergy
Readout Kind: Bliss excess
Reply with the value as a number alone.

Molecule: COc1cccc(OCCCN)c1-c1cc(Nc2cnc(C#N)cn2)n[nH]1 [Prexasertib] + CCc1c2c(nc3ccc(O)cc13)-c1cc3c(c(=O)n1C2)COC(=O)[C@]3(O)CC [SN-38] (first compound max 1 µM, 7x7, partner max 0.3 µM)
Readout Value: 0.0719

Molecule: Cc1c2c(nn1C)CSCc1cc(n(C)n1)CSc1cc(c3ccccc3c1)OCCCc1c(C(=O)O)n(C)c3c-2c(Cl)ccc13 [AZD5991] + CC1(C)CCC(CN2CCN(c3ccc(C(=O)NS(=O)(=O)c4ccc(NCC5CCOCC5)c([N+](=O)[O-])c4)c(Oc4cnc5[nH]ccc5c4)c3)CC2)=C(c2ccc(Cl)cc2)C1 [Venetoclax] (first compound max 1 µM, 7x7, partner max 1 µM)
Readout Value: -0.0221

Molecule: CCN(CCO)CCCOc1ccc2c(Nc3cc(CC(=O)Nc4cccc(F)c4)[nH]n3)ncnc2c1 [AZD2811] + C=CCn1c(=O)c2cnc(Nc3ccc(N4CCN(C)CC4)cc3)nc2n1-c1cccc(C(C)(C)O)n1 [AZD1775] (first compound max 1 µM, partner max 1 µM)
Readout Value: -0.0121

Molecule: CN(C)CCCOc1ccc(-c2ccc3ncc4c(c3c2)n(C2CCOCC2)c(=O)n4C)cn1 [AZD0156] + C=CCn1c(=O)c2cnc(Nc3ccc(N4CCN(C)CC4)cc3)nc2n1-c1cccc(C(C)(C)O)n1 [AZD1775] (first compound max 1 µM, partner max 1 µM)
Readout Value: 0.0174

Molecule: CC1(C)CCC(CN2CCN(c3ccc(C(=O)NS(=O)(=O)c4ccc(NCC5CCOCC5)c([N+](=O)[O-])c4)c(Oc4cnc5[nH]ccc5c4)c3)CC2)=C(c2ccc(Cl)cc2)C1 [Venetoclax] + COc1cc(Nc2ncc3c(n2)-c2ccc(Cl)cc2C(c2c(F)cccc2OC)=NC3)ccc1C(=O)O [Alisertib] (first compound max 1 µM, 7x7, partner max 10 µM)
Readout Value: -0.0126

Enquiry: Value lookup for Bliss excess; key = C=CCn1c(=O)c2cnc(Nc3ccc(N4CCN(C)CC4)cc3)nc2n1-c1cccc(C(C)(C)O)n1 [AZD1775] + C[C@@H]1COCCN1C2=NC(=NC(=C2)C3(CC3)[S@](=N)(=O)C)C4=C5C=CNC5=NC=C4 [AZD6738] (first compound max 1 µM, partner max 10 µM)
Return: -0.0173

Enquiry: What about COc1nnc2ccc(N3CCC(c4ccc(OCCN5CCN(C)C(=O)[C@H]5C)cc4)CC3)nn12 [AZD5153] + CC1(C)CCC(CN2CCN(c3ccc(C(=O)NS(=O)(=O)c4ccc(NCC5CCOCC5)c([N+](=O)[O-])c4)c(Oc4cnc5[nH]ccc5c4)c3)CC2)=C(c2ccc(Cl)cc2)C1 [Venetoclax] (first compound max 1 µM, 7x7, partner max 1 µM) ?
Return: -0.0571

----------
Test system: A549 (Lung Adenocarcinoma)
Assay: Bliss excess, mean over the matrix (fraction); higher = more synergy
Readout Kind: Bliss excess

Compound: CC(=O)c1c(C)c2cnc(Nc3ccc(N4CCNCC4)cn3)nc2n(C2CCCC2)c1=O [Palbociclib] + Cc1c2c(nn1C)CSCc1cc(n(C)n1)CSc1cc(c3ccccc3c1)OCCCc1c(C(=O)O)n(C)c3c-2c(Cl)ccc13 [AZD5991] (first compound max 10 µM, 7x7, partner max 1 µM)
Bliss excess: 0.0338

Enquiry: Please look up its Bliss excess: CN(CCO)CC[C@H](CSc1ccccc1)Nc1ccc(S(=O)(=O)NC(=O)c2ccc(N3CCC([C@@H](O)c4ccccc4-c4ccc(Cl)cc4)CC3)cc2)cc1S(=O)(=O)C(F)(F)F [AZD4320] + CN(C)CCCOc1ccc(-c2ccc3ncc4c(c3c2)n(C2CCOCC2)c(=O)n4C)cn1 [AZD0156] (first compound max 1 µM, 7x7, partner max 1 µM)
Return: -0.039

Enquiry: Would you kindly repeat that for CN(CCO)CC[C@H](CSc1ccccc1)Nc1ccc(S(=O)(=O)NC(=O)c2ccc(N3CCC([C@@H](O)c4ccccc4-c4ccc(Cl)cc4)CC3)cc2)cc1S(=O)(=O)C(F)(F)F [AZD4320] + CCN(CCO)CCCOc1ccc2c(Nc3cc(CC(=O)Nc4cccc(F)c4)[nH]n3)ncnc2c1 [AZD2811] (first compound max 1 µM, 7x7, partner max 1 µM) ?
Return: -0.149

----------
System: LN-405 (Glioblastoma)
Assay: combination Emax (second highest fraction inhibited in the dose matrix, 72 h); higher = more inhibition; extreme values may be limits of the assay
Readout Kind: combination Emax
Lab note: record the figure alone, no unit after it.

Below are worked cases with known answers.
Compound: CC(=O)Nc1cccc(-n2c(=O)n(C3CC3)c(=O)c3c(Nc4ccc(I)cc4F)n(C)c(=O)c(C)c32)c1 [Trametinib] + Cc1nc(-c2cn3c(n2)-c2ccc(-c4cnn(C(C)(C)C(N)=O)c4)cc2OCC3)n(C(C)C)n1 [Taselisib] (first compound max 1 µM, 7x7, partner max 10 µM)
combination Emax: 0.76
//
Compound: NC1(C(=O)N[C@@H](CCO)c2ccc(Cl)cc2)CCN(c2ncnc3[nH]ccc23)CC1 [Capivasertib] + Cn1cnc2c(F)c(Nc3ccc(Br)cc3Cl)c(C(=O)NOCCO)cc21 [Selumetinib] (first compound max 10 µM, 7x7, partner max 10 µM)
combination Emax: 0.539

Now look at this entry.
Enquiry: Fill in: combination Emax of COc1nnc2ccc(N3CCC(c4ccc(OCCN5CCN(C)C(=O)[C@H]5C)cc4)CC3)nn12 [AZD5153] + CCN(CCO)CCCOc1ccc2c(Nc3cc(CC(=O)Nc4cccc(F)c4)[nH]n3)ncnc2c1 [AZD2811] (first compound max 1 µM, 7x7, partner max 1 µM) is ___
Return: 0.515

----------
System: ECC10 (Gastric Carcinoma)
Assay: combination Emax (second highest fraction inhibited in the dose matrix, 72 h); higher = more inhibition; extreme values may be limits of the assay
Readout Kind: combination Emax
In your answer, state the number alone without any accompanying words.

Some compounds with recorded combination Emax:
Compound: N#Cc1cnc(Nc2cc(NC[C@H]3CNCCO3)c(C(F)(F)F)cn2)cn1 [SRA737] + CCc1c2c(nc3ccc(O)cc13)-c1cc3c(c(=O)n1C2)COC(=O)[C@]3(O)CC [SN-38] (first compound max 10 µM, 7x7, partner max 0.3 µM)
combination Emax: 0.973
--
Compound: C=CCn1c(=O)c2cnc(Nc3ccc(N4CCN(C)CC4)cc3)nc2n1-c1cccc(C(C)(C)O)n1 [AZD1775] + C1CN(CCC1(C(=O)N[C@@H](CCO)C2=CC=C(C=C2)Cl)N)C3=NC=NC4=C3C=CN4 [Capivasertib] (first compound max 3 µM, partner max 3 µM)
combination Emax: 0.746
--
Compound: COc1cccc(OCCCN)c1-c1cc(Nc2cnc(C#N)cn2)n[nH]1 [Prexasertib] + C[C@@H]1COCCN1C2=NC(=NC(=C2)C3(CC3)[S@](=N)(=O)C)C4=C5C=CNC5=NC=C4 [AZD6738] (first compound max 1 µM, 7x7, partner max 10 µM)
combination Emax: 0.712

Below: the item to evaluate.
Enquiry: Query (compound): CC1(C)CCC(CN2CCN(c3ccc(C(=O)NS(=O)(=O)c4ccc(NCC5CCOCC5)c([N+](=O)[O-])c4)c(Oc4cnc5[nH]ccc5c4)c3)CC2)=C(c2ccc(Cl)cc2)C1 [Venetoclax] + C[C@@H]1COCCN1C2=NC(=NC(=C2)C3(CC3)[S@](=N)(=O)C)C4=C5C=CNC5=NC=C4 [AZD6738] (first compound max 1 µM, 7x7, partner max 10 µM) ; field requested: combination Emax
Return: 0.98
